Taken from patent US20220306762A1.

TESTED ON: T1, His-tagged cynomolgus monkey CD38 (ACRO Biosystems, CD8-05223 [sic]) (cynomolgus monkey, UniProt Q5VAN0 43-301)
T1 construct: bought protein; used for ELISA coating and as SPR analyte; not shown: His tag
PROCEDURE SUMMARY: SPR (second run), His-tagged CD38
pKd: −log10 of the molar value.
Recorded pKd, one value per entry.

BINDER	pKd
40769p1.1.B10 (scFv, V domains shown) VH: EVQLLESGGGLVQPGGSLRLSCTASGITFSRFNMFWVRQAPGKGLEFVASIRDDGSWTYYADSVKGRFTISRDNSKNTLYLQMNSLRAEDTAVYYCAKDYNSKDFIYHYVMDVWGQGTTVTVSS VL: QSVLTQPPSASGTPGQRVTISCSGRNSNIGNNVVNWYQQLPGTAPKLLIYRNQERPSGVPDRFSGSKSGTSASLAISGLQSEDEADYYCSTWDDSLNGWVFGGGTKLTVL	5.22
40769p1.1.B12 (scFv, V domains shown) VH: EVQLLESGGGLIQPGGSLRLSCTASGFDFSSYGMHWVRQAPGKGLEWVGIISDSGGTTYYADSVKGRFTISRDNSKNTMYLQMNSLRAEDTALYYCASYIMDVWGQGITVTVSS VL: QSVLTQPPSASGTPGQRVTISCSGSSSNVGGNSVYWYQQLPGTAPKLLFYGNHRRPSGVPDRFSGSKSGTSASLAISGLQSEDEADYYCAVWDDSLNAWVFGGGTKLTVL	6.23
40617p1.1.F1 (scFv, V domains shown) VH: KVQLLESGGGLVQPGGSLRLSCAASGFTFSSYSMTWVRQAPGKGLEWVSRIYNGGSTYYADSVKGRFTISRDNSKNTLYLQMNSLRAEDTAVYYCARDTYAIDVWGQGTTVTVSS VL: EIVLTQSPATLSVSPGERATLSCRASQGIAGNLAWYQQKPGQAPRLLIYAASNRATGIPARFSGSGSGTDFTLTISSLQSEDFAVYYCQHYYDWPPYSFGGGTKVEIK	6.10
